# COND: fish
Please assign 0 (no) whenever log10 biotransformation half-life (days) is at or above 0.06, and 1 (yes) whenever it is below.

Query: Is log10 biotransformation half-life (days) of CCNc1ccccc1 strictly below 0.06?
Result: 1 (yes)

Query: Same lookup for ClC1=C(Cl)C2(Cl)C3CC(Cl)(Cl)CC3C1(Cl)C2(Cl)Cl (stereo unspecified) , please.
Result: 0 (no)

Query: Then this molecule: CCCCCCCCCCCC
Result: 0 (no)

Query: How about this molecule: Clc1ccc(C(c2ccc(Cl)cc2)C(Cl)(Cl)Cl)cc1
Result: 0 (no)

Query: For CC(C)(C)O then?
Result: 1 (yes)

Query: Now consider Brc1ccc(Oc2cc(Br)c(Br)cc2Br)c(Br)c1 .
Result: 0 (no)

Query: And for Clc1cc(Cl)c(-c2ccccc2)cc1Cl ?
Result: 0 (no)

Query: What would you report for C=C(Cl)Cl ?
Result: 1 (yes)

Query: Likewise for Cc1ccc(C)c(C)c1C ?
Result: 0 (no)

Query: Can you handle Nc1cc(Cl)c(Cl)c(Cl)c1 next?
Result: 0 (no)

Query: Now the molecule Clc1cc(-c2c(Cl)c(Cl)c(Cl)c(Cl)c2Cl)c(Cl)c(Cl)c1Cl
Result: 0 (no)

Query: # repeat for COc1cc(Cl)c(Cl)cc1O
Result: 1 (yes)

Query: Then Clc1ccc(C(c2ccc(Cl)cc2)C(Cl)Cl)cc1 ?
Result: 0 (no)

Query: Would you kindly repeat that for Nc1ccc(Cc2ccc(N)c(Cl)c2)cc1Cl ?
Result: 1 (yes)

Query: // same read-out, input: OCC(CO)(CBr)CBr
Result: 1 (yes)

Query: Entry Clc1cc2c(oc3c(Cl)c(Cl)c(Cl)c(Cl)c32)c(Cl)c1Cl please
Result: 0 (no)

Query: And the next one, CC(=CC(C)C)CC(C)C ?
Result: 0 (no)

Query: How about this molecule: Oc1ccc(Cl)cc1
Result: 1 (yes)

Query: Another: Nc1ccc(Cl)cc1Cl
Result: 1 (yes)

Query: Field entry: Clc1cc(Cl)c(Oc2cc(Cl)c(Cl)cc2Cl)c(Cl)c1
Result: 0 (no)
